B1: Arabidopsis thaliana AtSLY1 (yeast bait fusion) [Arabidopsis thaliana] / A. thaliana RGA (yeast prey fusion) [Arabidopsis thaliana] (parent complex)
chain 1: MKRSTTDSDLAGDAHNETNKKMKSTEEEEIGFSNLDENLVYEVLKHVDAKTLAMSSCVSKIWHKTAQDERLWELICTRHWTNIGCGQNQLRSVVLALGGFRRLHSLYLWPLSKPNPRARFGKDELKLTLSLLSIRYYEKMSFTKRPLPESK
chain 2: MKRDHHQFQGRLSNHGTSSSSSSISKDKMMMVKKEEDGGGNMDDELLAVLGYKVRSSEMAEVALKLEQLETMMSNVQEDGLSHLATDTVHYNPSELYSWLDNMLSELNPPPLPASSNGLDPVLPSPEICGFPASDYDLKVIPGNAIYQFPAIDSSSSSNNQNKRLKSCSSPDSMVTSTSTGTQIGGVIGTTVTTTTTTTTAAGESTRSVILVDSQENGVRLVHALMACAEAIQQNNLTLAEALVKQIGCLAVSQAGAMRKVATYFAEALARRIYRLSPPQNQIDHCLSDTLQMHFYETCPYLKFAHFTANQAILEAFEGKKRVHVIDFSMNQGLQWPALMQALALREGGPPTFRLTGIGPPAPDNSDHLHEVGCKLAQLAEAIHVEFEYRGFVANSLADLDASMLELRPSDTEAVAVNSVFELHKLLGRPGGIEKVLGVVKQIKPVIFTVVEQESNHNGPVFLDRFTESLHYYSTLFDSLEGVPNSQDKVMSEVYLGKQICNLVACEGPDRVERHETLSQWGNRFGSSGLAPAHLGSNAFKQASMLLSVFNSGQGYRVEESNGCLMLGWHTRPLITTSAWKLSTAAY

variants of: B1; assay: yeast 2-hybrid; read off a plot
Each entry below carries its recorded response.
Assay metric: response

INSERT INTO measurements (mutation_code, assay_metric, reported) VALUES
  ('chain 1 P114S', 'response', '~3.6 β-galactosidase units'),
  ('chain 1 H104Y', 'response', '~55 β-galactosidase units'),
  ('chain 1 K126N', 'response', '~3.9 β-galactosidase units'),
  ('chain 1 P114L', 'response', '~1.5 β-galactosidase units'),
  ('chain 1 T128S', 'response', '~1.3 β-galactosidase units'),
  ('chain 1 K126T', 'response', '~0.6 β-galactosidase units'),
  ('chain 1 E138K', 'response', '~3.7 β-galactosidase units'),
  ('chain 1 T128A', 'response', '~24 β-galactosidase units');
